System: 997537-175-T-J1-PDC complex spheroid viability;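 also: spheroids exposed to the agents for 7 days; 100% = DMSO vehicle control viability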
assay overview: Anticancer human tumor 997537-175-T-J1-PDC patient-derived colon adenocarcinoma cell line growth inhibition [GQUAD]
details: second compound 0.0316 µM; first compound 0.1 µM; stronger effect = lower value
Provide the reported viability, T/C of each item.
Value expressed in %; do not type the unit.

Query :: Which viability, T/C value is on record for O=C(NO)c1cnc(N2CCN(S(=O)(=O)c3ccc4ccccc4c3)CC2)nc1 + Cc1cnc(CNC(=O)c2c(=O)c3ccc(N4CCCN(C)CC4)nc3n3c2sc2ccccc23)cn1 ?
Result :: 92.3

Query :: Try this molecule next: O=C(c1cc(Cc2n[nH]c(=O)c3ccccc23)ccc1F)N1CCN(C(=O)C2CC2)CC1 + CN(C)c1ccc(Nc2c3ccc(NC(=O)CCN4CCCC4)cc3nc3cc(NC(=O)CCN4CCCC4)ccc23)cc1
Result :: 89.7

Query :: Try this molecule next: C=CC(=O)N1CCN(c2nc(=O)n(-c3c(C)ccnc3C(C)C)c3nc(-c4c(O)cccc4F)c(F)cc23)C(C)C1 (stereo unspecified) + Cc1cnc(CNC(=O)c2c(=O)c3ccc(N4CCCN(C)CC4)nc3n3c2sc2ccccc23)cn1
Result :: 90.1

Query :: Try this molecule next: O=C(c1cc(Cc2n[nH]c(=O)c3ccccc23)ccc1F)N1CCN(C(=O)C2CC2)CC1 + Cc1cnc(CNC(=O)c2c(=O)c3ccc(N4CCCN(C)CC4)nc3n3c2sc2ccccc23)cn1
Result :: 87.9

Query :: Try this molecule next: COc1cccc2c1C(=O)c1c(O)c3c(c(O)c1C2=O)CC(O)(C(=O)CO)CC3OC1CC(N)C(O)C(C)O1 (stereo unspecified) + CN(C)c1ccc(Nc2c3ccc(NC(=O)CCN4CCCC4)cc3nc3cc(NC(=O)CCN4CCCC4)ccc23)cc1
Result :: 88.9

Query :: Try this molecule next: CC(C)n1c(=O)n(C)c2cnc3cc(F)c(-c4ccc(OCCCN5CCCCC5)nc4)cc3c21 + Cc1cnc(CNC(=O)c2c(=O)c3ccc(N4CCCN(C)CC4)nc3n3c2sc2ccccc23)cn1
Result :: 91.3
